Molecular target: anti-TNFα antibody-Fab (IgG-Fab derived from anti-TNFα monoclonal antibody, adalimumab) (Homo sapiens, UniProt P01834+P01857)
Construct: cleaving a humanized monoclonal IgG formulation as a starting material into a Fab fragment and an Fc fragment by papain; purchased
Test: Biacore 3000 surface plasmon resonance, affinity of SpG-β1 mutants for immobilized IgG-Fab
Format: binding
Conditions: Table 2, Example 3; fold of wild-type KA; GST-fused one-domain peptide
Where no end group is shown, it is not given here.
READOUT_TYPE: KA Vs. Wild
Give the figure only, with no unit attached.

# SUBSTANCE, KA Vs. Wild
rows = [
    ("K13T/E19I/F30L/Y45F/D47Y: GST-fused one-domain SpG-β1 mutant, amino acid SEQ ID NO: 83 (TTYKLILNGKTLTGETTTIAVDAATAEKVLKQYANDNGVDGEWTFDYATKTFTVTE; also: GST-fused)", 3.7),
]

Endpoint output: KA Vs. Wild of K13T/E19I/K28N/F30L/Y33F: GST-fused one-domain SpG-β1 mutant, amino acid SEQ ID NO: 53 (TTYKLILNGKTLTGETTTIAVDAATAENVLKQFANDNGVDGEWTYDDATKTFTVTE; also: GST-fused) . Value?
3.9

Quick one: KA Vs. Wild of K13T/E19I/F30L/D47N: GST-fused one-domain SpG-β1 mutant, amino acid SEQ ID NO: 43 (TTYKLILNGKTLTGETTTIAVDAATAEKVLKQYANDNGVDGEWTYDNATKTFTVTE; also: GST-fused) ?
3.4

Quick check: KA Vs. Wild of K13T/E19I/F30L/D47A/K50E: GST-fused one-domain SpG-β1 mutant, amino acid SEQ ID NO: 65 (TTYKLILNGKTLTGETTTIAVDAATAEKVLKQYANDNGVDGEWTYDAATETFTVTE; also: GST-fused) ?
3.1

Fill in: KA Vs. Wild of K13T/E19I/A23T/T25M/F30L: GST-fused one-domain SpG-β1 mutant, amino acid SEQ ID NO: 49 (TTYKLILNGKTLTGETTTIAVDTAMAEKVLKQYANDNGVDGEWTYDDATKTFTVTE; also: GST-fused) is ___
3.0

I have this substance here, K13T/E19I/V21D/K28I/F30L/K31R/D47H: GST-fused one-domain SpG-β1 mutant, amino acid SEQ ID NO: 75 (TTYKLILNGKTLTGETTTIADDAATAEIVLRQYANDNGVDGEWTYDHATKTFTVTE; also: GST-fused) , and I need its recorded KA Vs. Wild.
3.7
